biological target: KRas (Homo sapiens, UniProt P01116, G12C); test: KRas degradation in NCI-H2030 cells by Western blot, normalized to GAPDH (data of Table 14); format: cell-based; design: host or cells: NCI-H2030; details: H2030 cells, 1 μM
Metric: Percent Degradation at Indicated Concentration (μM): 1

C=CC(=O)N1CCN(c2nc(NCCC(=O)N(C)CCOCCOCCOCC(=O)N[C@H](C(=O)N3C[C@H](O)C[C@H]3C(=O)N[C@@H](C)c3ccc(-c4scnc4C)cc3)C(C)(C)C)nc3c(F)c(-c4cc(O)cc5ccccc45)c(Cl)cc23)CC1; C (C ≤ 35)
C=CC(=O)N1CCN(c2nc(NCCC(=O)N(C)CCOCCOCCOCCNc3cccc4c3C(=O)N(C3CCC(=O)NC3=O)C4=O)nc3c(F)c(-c4cc(O)cc5ccccc45)c(Cl)cc23)CC1 (stereo not drawn); C (C ≤ 35)
CCC(=O)N1CCN(c2nc(NCCC(=O)N(C)CCOCCOCCOCCOCCOCC(=O)N[C@H](C(=O)N3C[C@H](O)C[C@H]3C(=O)N[C@@H](C)c3ccc(-c4scnc4C)cc3)C(C)(C)C)nc3c(F)c(-c4cc(O)cc5ccccc45)c(Cl)cc23)CC1; C (C ≤ 35)
C=CC(=O)N1CCN(c2nc(NCCC(=O)N(C)CCOCCOCC(=O)N[C@H](C(=O)N3C[C@H](O)C[C@H]3C(=O)N[C@@H](C)c3ccc(-c4scnc4C)cc3)C(C)(C)C)nc3c(F)c(-c4cc(O)cc5ccccc45)c(Cl)cc23)CC1; C (C ≤ 35)
CCC(=O)N1CCN(c2nc(NCCC(=O)N(C)CCOCCOCCOCCOCCOc3cc(-c4scnc4C)ccc3CNC(=O)[C@@H]3C[C@@H](O)CN3C(=O)C(c3cc(C)no3)C(C)C)nc3c(F)c(-c4cc(O)cc5ccccc45)c(Cl)cc23)CC1 (stereo partly drawn); C (C ≤ 35)
C=CC(=O)N1CCN(c2nc(NCCC(=O)N(C)CCOCCOCCOCCOc3ccc4c(c3)C(=O)N(C3CCC(=O)NC3=O)C4=O)nc3c(F)c(-c4cc(O)cc5ccccc45)c(Cl)cc23)CC1 (stereo not drawn); C (C ≤ 35)

# get_value(readout='Percent Degradation at Indicated Concentration (μM): 1', item= CCC(=O)N1CCN(c2nc(NCCC(=O)N(C)CCOCCOCCOCCOCCOc3ccc4c(c3)C(=O)N(C3CCC(=O)NC3=O)C4=O)nc3c(F)c(-c4cc(O)cc5ccccc45)c(Cl)cc23)CC1 (stereo not drawn) )
C (C ≤ 35)

# get_value(readout='Percent Degradation at Indicated Concentration (μM): 1', item= C=CC(=O)N1CCN(c2nc(NCCC(=O)N(C)CCOCCOCCOCCOc3ccc4c(c3)CN(C3CCC(=O)NC3=O)C4=O)nc3c(F)c(-c4cc(O)cc5ccccc45)c(Cl)cc23)CC1 (stereo not drawn) )
C (C ≤ 35)

# get_value(readout='Percent Degradation at Indicated Concentration (μM): 1', item= C=CC(=O)N1CCN(c2nc(NCCC(=O)N(C)CCOCCOCCOc3ccc4c(c3)CN(C3CCC(=O)NC3=O)C4=O)nc3c(F)c(-c4cc(O)cc5ccccc45)c(Cl)cc23)CC1 (stereo not drawn) )
C (C ≤ 35)

# get_value(readout='Percent Degradation at Indicated Concentration (μM): 1', item= C=CC(=O)N1CCN(c2nc(NCCC(=O)N(C)CCOCCOCCOCCOCCNc3cccc4c3C(=O)N(C3CCC(=O)NC3=O)C4=O)nc3c(F)c(-c4cc(O)cc5ccccc45)c(Cl)cc23)CC1 (stereo not drawn) )
C (C ≤ 35)

# get_value(readout='Percent Degradation at Indicated Concentration (μM): 1', item= CCC(=O)N1CCN(c2nc(NCCC(=O)N(C)CCOCCOCCOCCOCCOc3ccc4c(c3)CN(C3CCC(=O)NC3=O)C4=O)nc3c(F)c(-c4cc(O)cc5ccccc45)c(Cl)cc23)CC1 (stereo not drawn) )
C (C ≤ 35)

# get_value(readout='Percent Degradation at Indicated Concentration (μM): 1', item= "CCC(=O)N1CCN(c2nc(NCCC(=O)N(C)CCOCCOCCOc3cc(-c4scnc4C)ccc3CNC(=O)[C@@H]3C[C@@H](O)CN3C(=O)[C@H](c3cc(C)no3)C(C)C)nc3c(F)c(-c4cc(O)cc5ccccc45)c(Cl)cc23)CC1" )
C (C ≤ 35)

# get_value(readout='Percent Degradation at Indicated Concentration (μM): 1', item= "CCC(=O)N1CCN(c2nc(NCCC(=O)N(C)CCOCC(=O)N[C@H](C(=O)N3C[C@H](O)C[C@H]3C(=O)N[C@@H](C)c3ccc(-c4scnc4C)cc3)C(C)(C)C)nc3c(F)c(-c4cc(O)cc5ccccc45)c(Cl)cc23)CC1" )
C (C ≤ 35)

# get_value(readout='Percent Degradation at Indicated Concentration (μM): 1', item= C=CC(=O)N1CCN(c2nc(NCCC(=O)N(C)CCOCCOCCOCCOCCOc3ccc4c(c3)C(=O)N(C3CCC(=O)NC3=O)C4=O)nc3c(F)c(-c4cc(O)cc5ccccc45)c(Cl)cc23)CC1 (stereo not drawn) )
C (C ≤ 35)

# get_value(readout='Percent Degradation at Indicated Concentration (μM): 1', item= C=CC(=O)N1CCN(c2nc(NCCC(=O)N(C)CCOCCOc3ccc4c(c3)C(=O)N(C3CCC(=O)NC3=O)C4=O)nc3c(F)c(-c4cc(O)cc5ccccc45)c(Cl)cc23)CC1 (stereo not drawn) )
C (C ≤ 35)

# get_value(readout='Percent Degradation at Indicated Concentration (μM): 1', item= C=CC(=O)N1CCN(c2nc(NCCC(=O)N(C)CCNc3cccc4c3C(=O)N(C3CCC(=O)NC3=O)C4=O)nc3c(F)c(-c4cc(O)cc5ccccc45)c(Cl)cc23)CC1 (stereo not drawn) )
C (C ≤ 35)

# get_value(readout='Percent Degradation at Indicated Concentration (μM): 1', item= "C=CC(=O)N1CCN(c2nc(NCCC(=O)N(C)CCOCCOc3cc(-c4scnc4C)ccc3CNC(=O)[C@@H]3C[C@@H](O)CN3C(=O)[C@@H](c3cc(C)no3)C(C)C)nc3c(F)c(-c4cc(O)cc5ccccc45)c(Cl)cc23)CC1" )
C (C ≤ 35)

# get_value(readout='Percent Degradation at Indicated Concentration (μM): 1', item= "CCC(=O)N1CCN(c2nc(NCCC(=O)N(C)CCOCCOCCOCC(=O)N[C@H](C(=O)N3C[C@H](O)C[C@H]3C(=O)N[C@@H](C)c3ccc(-c4scnc4C)cc3)C(C)(C)C)nc3c(F)c(-c4cc(O)cc5ccccc45)c(Cl)cc23)CC1" )
C (C ≤ 35)

* * *

target: KRas (Homo sapiens, UniProt P01116, G12C); assay: KRas degradation in NCI-H2030 cells by Western blot, normalized to GAPDH (data of Table 14); type: cell-based; parameters: host or cells: NCI-H2030; conditions: NCI-H2030
Hi there, I'd appreciate the recorded Dmax for every entry that follows.

Give the reported Dmax for C=CC(=O)N1CCN(c2nc(NCCC(=O)N(C)CCNc3cccc4c3C(=O)N(C3CCC(=O)NC3=O)C4=O)nc3c(F)c(-c4c(O)cccc4F)c(Cl)cc23)CC1 (stereo not shown) (system: KRas (Homo sapiens, UniProt P01116, G12C)).
≤ 35%

Give the reported Dmax for "C=CC(=O)N1CCN(c2nc(NCCC(=O)N(C)CCOCCOCCOCCOCCOc3cc(-c4scnc4C)ccc3CNC(=O)[C@@H]3C[C@@H](O)CN3C(=O)[C@H](c3cc(C)no3)C(C)C)nc3c(F)c(-c4cc(O)cc5ccccc45)c(Cl)cc23)CC1" (system: KRas (Homo sapiens, UniProt P01116, G12C)).
≤ 35%

Give the reported Dmax for CN(CCOCCOc1ccc2c(c1)CN(C1CCC(=O)NC1=O)C2=O)C(=O)CCNc1nc(N2CCN(C(N)=O)CC2)c2cc(Cl)c(-c3cc(O)cc4ccccc34)c(F)c2n1 (stereo not shown) (system: KRas (Homo sapiens, UniProt P01116, G12C)).
≤ 35%

Give the reported Dmax for C=CC(=O)N1CCN(c2nc(NCCC(=O)N(C)CCOCCOCCOCCNC(=O)c3ccc(NC(=O)[C@@H]4N[C@@H](CC(C)(C)C)[C@](C#N)(c5ccc(Cl)cc5F)[C@H]4c4cccc(Cl)c4F)c(OC)c3)nc3c(F)c(-c4c(O)cccc4F)c(Cl)cc23)CC1 (atropisomer, axis not shown) (system: KRas (Homo sapiens, UniProt P01116, G12C)).
≤ 35%

Give the reported Dmax for "CN[C@@H](C)C(=O)N[C@H](C(=O)N1CCC[C@H]1c1nc(-c2ccc(OCCOCCOCCOCCN(C)C(=O)CCNc3nc(N4CCN(C(C)=O)CC4)c4cc(Cl)c(-c5cc(O)cc6ccccc56)c(F)c4n3)c3ccccc23)cs1)C1CCCCC1" (system: KRas (Homo sapiens, UniProt P01116, G12C)).
≤ 35%

Give the reported Dmax for "C=CC(=O)N1CCN(c2nc(NCCC(=O)N(C)CCOc3cc(-c4scnc4C)ccc3CNC(=O)[C@@H]3C[C@@H](O)CN3C(=O)[C@@H](c3cc(C)no3)C(C)C)nc3c(F)c(-c4cc(O)cc5ccccc45)c(Cl)cc23)CC1" (system: KRas (Homo sapiens, UniProt P01116, G12C)).
≤ 35%

Give the reported Dmax for C=CC(=O)N1CCN(c2nc(NCCC(=O)N(C)CCOCCNC(=O)c3ccc(NC(=O)[C@@H]4N[C@@H](CC(C)(C)C)[C@](C#N)(c5ccc(Cl)cc5F)[C@H]4c4cccc(Cl)c4F)c(OC)c3)nc3c(F)c(-c4c(O)cccc4F)c(Cl)cc23)CC1 (atropisomer, axis not shown) (system: KRas (Homo sapiens, UniProt P01116, G12C)).
≤ 35%

Give the reported Dmax for "C=CC(=O)N1CCN(c2nc(Nc3ccc(OCCOCCOCC(=O)N[C@H](C(=O)N4C[C@H](O)C[C@H]4C(=O)N[C@@H](C)c4ccc(-c5scnc5C)cc4)C(C)(C)C)cc3)nc3c(F)c(-c4cc(O)cc5ccccc45)c(Cl)cc23)CC1" (system: KRas (Homo sapiens, UniProt P01116, G12C)).
≤ 35%

Give the reported Dmax for "C=CC(=O)N1CCN(c2nc(OCCN(C)CCOCCOCCOCCOCC(=O)N[C@H](C(=O)N3C[C@H](O)C[C@H]3C(=O)N[C@@H](C)c3ccc(-c4scnc4C)cc3)C(C)(C)C)nc3c(F)c(-c4cc(O)cc5ccccc45)c(Cl)cc23)CC1" (system: KRas (Homo sapiens, UniProt P01116, G12C)).
≤ 35%

Give the reported Dmax for "C=CC(=O)N1CCN(c2nc(NCCC(=O)N(C)CCOCCOCCOCCNC(=O)c3ccc(NC(=O)[C@@H]4N[C@@H](CC(C)(C)C)[C@](C#N)(c5ccc(Cl)cc5F)[C@H]4c4cccc(Cl)c4F)c(OC)c3)nc3c(F)c(-c4cc(O)cc5ccccc45)c(Cl)cc23)CC1" (system: KRas (Homo sapiens, UniProt P01116, G12C)).
≤ 35%

Give the reported Dmax for "CC(=O)N1CCN(c2nc(NCCC(=O)N(C)CCOCCOCC(=O)N[C@H](C(=O)N3C[C@H](O)C[C@H]3C(=O)N[C@@H](C)c3ccc(-c4scnc4C)cc3)C(C)(C)C)nc3c(F)c(-c4cc(O)cc5ccccc45)c(Cl)cc23)CC1" (system: KRas (Homo sapiens, UniProt P01116, G12C)).
≤ 35%

Give the reported Dmax for "C=CC(=O)N1CCN(c2nc(Nc3ccc(OCCOCCOCCOCCOCC(=O)N[C@H](C(=O)N4C[C@H](O)C[C@H]4C(=O)N[C@@H](C)c4ccc(-c5scnc5C)cc4)C(C)(C)C)cc3)nc3c(F)c(-c4cc(O)cc5ccccc45)c(Cl)cc23)CC1" (system: KRas (Homo sapiens, UniProt P01116, G12C)).
≤ 35%

Give the reported Dmax for "C=CC(=O)N1CCN(c2nc(NCCC(=O)N(C)CCOCCOCCOCCOc3ccc(-c4csc([C@@H]5CCCN5C(=O)[C@@H](NC(=O)[C@H](C)NC)C5CCCCC5)n4)c4ccccc34)nc3c(F)c(-c4cc(O)cc5ccccc45)c(Cl)cc23)CC1" (system: KRas (Homo sapiens, UniProt P01116, G12C)).
≤ 35%

Give the reported Dmax for C=CC(=O)N1CCN(c2nc(NCCC(=O)N(C)CCOCCOc3ccc(-c4csc([C@@H]5CCCN5C(=O)[C@@H](NC(=O)[C@H](C)NC)C5CCCCC5)n4)c4ccccc34)nc3c(F)c(-c4c(O)cccc4F)c(Cl)cc23)CC1 (atropisomer, axis not shown) (system: KRas (Homo sapiens, UniProt P01116, G12C)).
≤ 35%

Give the reported Dmax for C=CC(=O)N1CCN(c2nc(NCCC(=O)N(C)CCOCC(=O)N[C@H](C(=O)N3C[C@H](O)C[C@H]3C(=O)N[C@@H](C)c3ccc(-c4scnc4C)cc3)C(C)(C)C)nc3c(F)c(-c4c(O)cccc4F)c(Cl)cc23)CC1 (atropisomer, axis not shown) (system: KRas (Homo sapiens, UniProt P01116, G12C)).
≤ 35%

Give the reported Dmax for "CC(=O)N1CCN(c2nc(NCCC(=O)N(C)CCOCCOCCOCC(=O)N[C@H](C(=O)N3C[C@H](O)C[C@H]3C(=O)N[C@@H](C)c3ccc(-c4scnc4C)cc3)C(C)(C)C)nc3c(F)c(-c4cc(O)cc5ccccc45)c(Cl)cc23)CC1" (system: KRas (Homo sapiens, UniProt P01116, G12C)).
≤ 35%
